// data source = PubChem BioAssay (NCI)

Recorded TGI by entry
# Test system: CCRF-CEM leukemia
# procedure text: NCI tumour cell line growth inhibition, 48 h

molecule | TGI
Cc1cc(-c2ccc(N=Nc3ccc4c(S(=O)(=O)O)cc(S(=O)(=O)O)c(N)c4c3O)c(C)c2)ccc1N=Nc1ccc2c(S(=O)(=O)O)cc(S(=O)(=O)O)c(N)c2c1O | > 100 µM
CCOC(=O)[C@@H](C)C[C@H](Cc1ccccc1)NC(=O)c1csc([C@@H](C[C@H](C(C)C)N(C)C(=O)CNC(=O)[C@H]2CCCCN2C)OC(C)=O)n1 | > 14.3 µM
CC1CCCP(=O)(c2ccccc2)CCC1 (centres undefined) | > 100 µM

Form field - read-out: TGI; system: CCRF-CEM leukemia; submitted item: O=C(/C=C\c1ccccc1)Oc1ccc(/C=C2\CCC/C(=C\c3ccc(OC(=O)/C=C\c4ccccc4)cc3)C2=O)cc1
> 100 µM

---

# Tested on: UACC-257 melanoma
# procedure text: NCI tumour cell line growth inhibition, 48 h; in the data active = GI50 below about 0.43 µM; inactive = the rest
Output constraint: value belongs to 1 (yes) for active, 0 (no) for inactive

smiles text | category label
O=C(O)c1ccccc1NCn1nc(-c2ccccc2O)oc1=S | 0 (no)
O=c1[nH]c(=S)[nH]c(O)c1/C=C1\C=Nc2ccccc21 | 0 (no)

# next compound below
Each compound tested received a call. Report the one for CCOC(=O)c1cc(C(=O)c2ccc(OC)c(OC)c2)n2c1ccc1ccc3cccnc3c12 .
0 (no)

---

Recorded TGI by entry
# Test system: HCT-15 colon
# procedure text: NCI tumour cell line growth inhibition, 48 h

The following compounds have reported results that may help.
compound | study target | result
CC(C)c1ccc(Cc2ccc(C(C)C)c(NC(=O)C(=O)Cc3cnc4ccccc4n3)c2C(C)C)c(C(C)C)c1NC(=O)C(=O)Cc1cnc2ccccc2n1 | HCT-15 colon | > 100 µM
CC(=O)Nc1cccc(C#Cc2cncnc2Nc2ccc(OCc3cccc(F)c3)c(Cl)c2)c1 | HCT-15 colon | > 25 µM
CC(C)(C)OC(=O)N[C@H]1CC(=O)c2ccccc2N(CC(=O)O)C1=O | HCT-15 colon | > 100 µM
CCc1c(O)nc(Nc2nc3ccccc3[nH]2)[nH]c1=O | HCT-15 colon | > 100 µM

# input for lookup
Form field - read-out: TGI; system: HCT-15 colon; submitted item: COc1ccc(S(=O)(=O)NC(CCC(=O)NC(N)=O)C(=O)NC(N)=O)cc1 (stereo not given)
> 100 µM

---

Recorded TGI by entry
# Test system: MALME-3M melanoma
# procedure text: NCI tumour cell line growth inhibition, 48 h

The following compounds have reported results that may help.
compound | TGI
CN(C)c1cccc2c(S(=O)(=O)NCCN)cccc12 | > 100 µM
CC1(C)CCC[C@@]2(C)C1CC[C@@]1(CO)O[C@H](C3=CC(=O)OC3O)C[C@H]12 (stereo partly specified) | 24.2 µM

// query TGI value for entry COc1ccccc1/C=C(\NC(=O)c1ccccc1)c1nc2ccc(Cl)cc2[nH]1
> 100 µM

// query TGI value for entry O=c1c2ccc(Cl)cc2oc2c(CSc3ccccc3)cccc12
> 61.1 µM

// query TGI value for entry O=C(Nc1cccc2ccccc12)c1cc2ccccc2oc1=O
> 100 µM

// query TGI value for entry N#CC(C(=O)Nc1ccccc1)C1=C(Cl)C(=O)c2ccccc2C1=O (stereo unspecified)
26.7 µM

---

# Test system: A549 NSCLC
# procedure text: NCI tumour cell line growth inhibition, 48 h
Recorded TGI by entry

compound | TGI
CC1(C)CCC[C@@]2(C)C1CC[C@@]1(CO)O[C@H](C3=CC(=O)OC3O)C[C@H]12 (stereo partly specified) | > 86.1 µM
O=[N+]([O-])/C=C/c1ccc2ccccc2c1 | > 58.5 µM
O=c1c2[nH]cnc2n(-c2ccccc2)c(=S)n1-c1ccccc1 | > 100 µM

// query TGI value for entry [O-][n+]1c2cccc(O)c2[n+]([O-])c2cccc(O)c21
> 100 µM

// query TGI value for entry CCOC(=O)C1=C(C)N(NC(N)=O)C2(N)N(NC(N)=O)C(C)=C(C(=O)OCC)C12C#N (stereo unspecified)
> 100 µM

// query TGI value for entry CCOC(=O)c1cn(C)c2c(OC)c3ccccc3c(OC)c2c1=O
> 100 µM

---

# Test system: SK-MEL-2 melanoma
# procedure text: NCI tumour cell line growth inhibition, 48 h
recorded endpoint: TGI

compound | study target | recorded endpoint | result
COC(=O)C1CCC(C)CC1=O (stereo not given) | SK-MEL-2 melanoma | TGI | > 100 µM
Oc1cn(-c2ccc(Cl)cc2)nc1-c1n[nH]c(=S)n1-c1ccc(F)cc1 | SK-MEL-2 melanoma | TGI | > 100 µM
COc1cc2c(cc1O)NC(=O)[C@@H]1C[C@@H](O)CN1C2=O | SK-MEL-2 melanoma | TGI | > 100 µM

// query TGI value for entry CCC12CCC[C@@]13C=C[C@H](O3)C(C)(C)C2=O (stereo not given in full)
> 100 µM

// query TGI value for entry COc1ccc(S(=O)(=O)NC(CCC(=O)NC(N)=O)C(=O)NC(N)=O)cc1 (stereo not given)
> 100 µM

---

Recorded TGI by entry
# System: A549 NSCLC
# procedure text: NCI tumour cell line growth inhibition, 48 h

The following compounds have reported results that may help.
compound | study target | recorded endpoint | result
CC1=NC(=N)N=C(C)C1N=Nc1ccc2nc(C)[nH]c2c1 (configuration not stated) | A549 NSCLC | TGI | > 100 µM
C[n+]1cn(CC(=O)c2ccccc2)c(C(N)=O)c1N | A549 NSCLC | TGI | > 100 µM
O=c1[nH]c2ccccc2cc1-c1nnc(Cc2ccccc2)o1 | A549 NSCLC | TGI | > 100 µM

# input for lookup
// query TGI value for entry OCCNc1nc2ccccc2c2[nH]c3ccccc3c12
2.19 µM

---

# Tested on: MDA-MB-231 breast
# procedure text: NCI tumour cell line growth inhibition, 48 h; in the data active means GI50 below about 0.43 µM; inactive means the rest
Output constraint: value belongs to active, inactive

The examples below pair each entry with its known result.
compound | category label
CCOC(=O)c1cn(C)c2c(OC)c3ccccc3c(OC)c2c1=O | inactive
Cn1cc(-c2ccc3ncc(-c4ccc(CC(=O)Nc5cc(C(C)(C)C)nn5C)cc4)cc3c2)cn1 | inactive
CN(C)C1C(=O)C(C(N)=O)=C(O)C2(O)C(=O)C3=C(O)c4c(O)cccc4C(C)(O)C3CC12.[Cl][Sb]([Cl])[Cl] (stereo not given) | inactive
Nc1ncnc2c1c(-c1ccc(Oc3ccccc3)cc1)nn2CC1SSCC1O (stereo not given) | inactive

Each compound tested received a call. Report the one for O=C(CCCCN1CCN(CCCCC(=O)Nc2ccccc2C#C/C=C\C#Cc2ccccc2C(F)(F)F)CC1)Nc1ccccc1C#C/C=C\C#Cc1ccccc1C(F)(F)F .
inactive

Each compound tested received a call. Report the one for CN(C)CCNC(=O)Nc1ccc(N(C)c2ccnc(Nc3ccc(CS(C)(=O)=O)cc3)n2)cc1 .
inactive

Each compound tested received a call. Report the one for NC(=O)c1nc(-c2c(F)cccc2Cl)oc1Nc1ccc(C(=O)N2CCOCC2)cc1 .
inactive

Each compound tested received a call. Report the one for O=C(CI)NC(=O)NC(=O)NCc1ccccc1 .
inactive

Each compound tested received a call. Report the one for S=C(Sc1ccc(Cl)cc1)Sc1ccc(Cl)cc1 .
inactive

Each compound tested received a call. Report the one for O=c1[nH]c(=S)[nH]c(O)c1/C=C1\C=Nc2ccccc21 .
inactive

Each compound tested received a call. Report the one for O=C(Nc1ccc(-n2cc(-c3ccncc3)c(-c3ccc(O)c(Cl)c3)n2)cc1)Nc1cc(C(F)(F)F)cc(C(F)(F)F)c1 .
inactive

Each compound tested received a call. Report the one for Oc1cn(-c2ccc(Cl)cc2)nc1-c1n[nH]c(=S)n1-c1ccc(F)cc1 .
inactive

Each compound tested received a call. Report the one for COC(=O)[C@]12CC[C@@H](C)[C@H](C)[C@@H]1C1=CC[C@@H]3[C@@]4(C)C(C=O)=C[C@@](C)(COS(C)(=O)=O)C4=CC[C@@]3(C)[C@]1(C)CC2 .
active

Each compound tested received a call. Report the one for O=c1[nH]c2ccccc2cc1-c1nnc(Cc2ccccc2)o1 .
inactive

Each compound tested received a call. Report the one for CCOC(=O)c1cc(C(=O)c2ccc(OC)c(OC)c2)n2c1ccc1ccc3cccnc3c12 .
inactive

---

# Tested on: ACHN renal
# procedure text: NCI tumour cell line growth inhibition, 48 h
recorded endpoint: GI50

The following compounds have reported results that may help.
compound | recorded endpoint | result
S=C(Sc1ccc(Cl)cc1)Sc1ccc(Cl)cc1 | GI50 | 3.23 µM
COC(=O)[C@]12CC[C@@H](C)[C@H](C)[C@@H]1C1=CC[C@@H]3[C@@]4(C)C(C=O)=C[C@@](C)(COS(C)(=O)=O)C4=CC[C@@]3(C)[C@]1(C)CC2 | GI50 | 0.171 µM
Nc1ncnc2c1c(-c1ccc(Oc3ccccc3)cc1)nn2CC1SSCC1O (configuration not stated) | GI50 | 4.27 µM
CC[n+]1c(-c2ccccc2)c2cc(N)ccc2c2ccc(N)cc21 | GI50 | 14.1 µM
CCN(CC)CCCC(Nc1c2ccc(Cl)cc2nc2ccc(OC)cc12)c1ccc(Cl)cc1 (configuration not stated) | GI50 | 1.38 µM
O=C(Nc1ccc(-n2cc(-c3ccncc3)c(-c3ccc(Cl)c(O)c3)n2)cc1)c1cc(C(F)(F)F)cc(C(F)(F)F)c1 | GI50 | 6.47 µM

// query GI50 value for entry O=C(Nc1nc2ccc(S(=O)(=O)Nc3ccc(C4(C(F)(F)F)CC4)cc3)cc2[nH]1)c1cnccn1
4.39 µM
